Recorded measurements of Papp at 18 hours, 50 µM, one per entry
# assay-protocol: PAMPA (parallel artificial membrane permeability assay)
# Format: in vitro ADME
# test-conditions: PAMPA; membrane permeation rate (Pe); 50 mM MOPSO buffer pH 6.5 with 5.0% glycocholic acid, 37° C., 18 hours; read-out: iPAMPA Pe
Positions of bridges follow the written chain, without caps; N, C: chain ends. Non-standard residues stand in square brackets, D forms with d. Residues, ends and D or L forms follow the SMILES beside them. *: point of attachment. NMeF = CN[C@@H](Cc1ccccc1)C(=O)O; NMeL = CN[C@@H](CC(C)C)C(=O)O; NMeV = CN[C@H](C(=O)O)C(C)C; NMeA = CN[C@@H](C)C(=O)O; Piperidide = C1CCN(*)CC1; dNMeA = CN[C@H](C)C(=O)O; Sar = CNCC(=O)O
Hi! Could you send only the number? It should be in ×10⁻⁶ cm/s, unit omitted.

For CC[C@H](C)[C@@H]1NC(=O)[C@H](Cc2ccccc2)NC(=O)[C@H](C)N(C)C(=O)C[C@@H](C(=O)N2CCCCC2)NC(=O)[C@H](CC(C)C)NC(=O)[C@H](Cc2ccccc2)NC(=O)[C@H](Cc2ccccc2)N(C)C(=O)[C@H](CC(C)C)NC(=O)[C@H]([C@@H](C)O)NC(=O)[C@H](CC(C)C)N(C)C1=O [DP-332] ([NMeA]FI[NMeL]TL[NMeF]FLD-Piperidide; lactam N-10) , what is its reported Papp at 18 hours, 50 µM?
14

For CC(C)C[C@@H]1NC(=O)[C@H](CC(C)C)N(C)C(=O)[C@H](C)N(C)C(=O)[C@@H](C)N(C)C(=O)C[C@@H](C(=O)N2CCCCC2)NC(=O)[C@H]([C@@H](C)O)NC(=O)CN(C)C(=O)[C@H](Cc2ccccc2)NC(=O)[C@H](CC(C)C)N(C)C(=O)[C@H](C(C)C)N(C)C(=O)[C@H](Cc2ccccc2)N(C)C1=O [DP-165] ([dNMeA][NMeA][NMeL]L[NMeF][NMeV][NMeL]F[Sar]TD-Piperidide; lactam N-11) , what is its reported Papp at 18 hours, 50 µM?
56

---

# assay-protocol: Metabolic stability in human hepatic microsome
# Format: in vitro ADME
# test-conditions: microsomes, pH 7.4; human hepatic microsome, NADPH(+); read-out: CL NADPH(+)
Starred links: 1 amine or outer side, 2 acyl side, 3 side chain; linkers in the order of their positions; H or OH if unused. Positions of bridges follow the written chain, without caps; N, C: chain ends. Non-standard residues stand in square brackets, D forms with d. Residues, ends and D or L forms follow the SMILES beside them. *: point of attachment. Phe(4-(CH2)5CO) = O=C([C@H](Cc1ccc(CCCCCC(=O)[*:3])cc1)N[*:1])[*:2]; NMeF = CN[C@@H](Cc1ccccc1)C(=O)O; NMeβAla = CN(CCC(=O)[*:2])[*:1]; NMeL = CN[C@@H](CC(C)C)C(=O)O; NMeA = CN[C@@H](C)C(=O)O; Piperidide = C1CCN(*)CC1
Decision: microsomal CLint at 1 uM >= 70 µL/min/mg yields Yes, all other cases yield No.

Example entries begin here.
molecule	class-name
CC[C@H](C)[C@@H]1NC(=O)[C@H](Cc2ccccc2)N(C)C(=O)[C@H](CC(C)C)NC(=O)[C@H](CC(C)C)NC(=O)[C@H](Cc2ccccc2)NC(=O)[C@H](CC(C)C)NC(=O)[C@@H](C)NC(=O)C[C@@H](C(=O)N(C)[C@@H](C)C(=O)N[C@@H](CC(C)C)C(=O)N[C@@H](C)C(=O)N[C@H](C(=O)N2CCCCC2)[C@@H](C)CC)NC(=O)[C@H](Cc2ccccc2)NC(=O)[C@H]([C@@H](C)O)NC1=O [DP-580] ([dA]LFLL[NMeF]ITFD[NMeA]LAI-Piperidide; lactam N-10)	No
CC[C@H](C)[C@@H]1NC(=O)[C@H](Cc2ccccc2)N(C)C(=O)[C@H](CC(C)C)NC(=O)[C@H](CC(C)C)NC(=O)[C@H](Cc2ccccc2)NC(=O)[C@H](CC(C)C)NC(=O)[C@@H](C)NC(=O)C[C@@H](C(=O)N2CCCCC2)NC(=O)[C@H](Cc2ccccc2)NC(=O)[C@H]([C@@H](C)O)NC1=O [DP-115] ([dA]LFLL[NMeF]ITFD-Piperidide; lactam N-10)	No
CC[C@H](C)[C@@H]1NC(=O)[C@H](Cc2ccccc2)N(C)C(=O)[C@H](Cc2ccccc2)NC(=O)[C@H](CC(C)C)N(C)C(=O)[C@H](C(C)C)NC(=O)[C@H](CC(C)C)NC(=O)[C@H](C)N(C)C(=O)CNC(=O)CCCCCc2ccc(cc2)C[C@@H](C(=O)N2CCCCC2)NC(=O)[C@H]([C@@H](C)O)NC(=O)[C@H](CC(C)C)NC(=O)[C@H](C)N(C)C1=O [DP-891] (G[NMeA]LV[NMeL]F[NMeF]I[NMeA]LT[Phe(4-(CH2)5CO)]-Piperidide; lactam N-12)	Yes

Moving on to another molecule below.
In plain terms: is recorded microsomal CLint at 1 uM at least 70 µL/min/mg for CC[C@H](C)[C@H](NC(=O)[C@@H](NC(=O)[C@H](Cc1ccccc1)NC(=O)[C@H](CC(C)C)N(C)C(=O)[C@@H]1CC(=O)N(C)CCC(=O)N(C)[C@@H](C)C(=O)N[C@@H](CC(C)C)C(=O)N[C@@H]([C@@H](C)O)C(=O)N(C)[C@@H](Cc2ccccc2)C(=O)N(C)[C@@H](CC(C)C)C(=O)N(C)[C@@H](Cc2ccccc2)C(=O)N1)C(C)C)C(=O)N1CCCCC1 [DP-930] ([NMeβAla][NMeA]LT[NMeF][NMeL][NMeF]D[NMeL]FVI-Piperidide; lactam N-8) ?
Yes

---

# assay-protocol: Metabolic stability in human hepatic microsome
# Type: in vitro ADME
# test-conditions: microsomes, pH 7.4; human hepatic microsome, NADPH(+); read-out: CL NADPH(+)
Starred links: 1 amine or outer side, 2 acyl side, 3 side chain; linkers in the order of their positions; H or OH if unused. Positions of bridges follow the written chain, without caps; N, C: chain ends. Non-standard residues stand in square brackets, D forms with d. Residues, ends and D or L forms follow the SMILES beside them. *: point of attachment. NMeF = CN[C@@H](Cc1ccccc1)C(=O)O; NMeI = CC[C@H](C)[C@H](NC)C(=O)O; NMeβAla = CN(CCC(=O)[*:2])[*:1]; NMeL = CN[C@@H](CC(C)C)C(=O)O; Phg = N[C@H](C(=O)O)c1ccccc1; NMeV = CN[C@H](C(=O)O)C(C)C; NMeA = CN[C@@H](C)C(=O)O; Piperidide = C1CCN(*)CC1; Sar = CNCC(=O)O
Recorded measurements of microsomal CLint at 1 uM, one per entry
Hi! Could you send only the number? It should be in µL/min/mg, unit omitted.

See these solved cases before continuing.
compound	result-number
CC[C@H](C)[C@H]1C(=O)N(C)[C@@H](CC(C)C)C(=O)N(C)[C@@H](Cc2ccccc2)C(=O)N[C@@H](CC(C)C)C(=O)N(C)[C@@H](C(C)C)C(=O)N[C@@H](Cc2ccccc2)C(=O)N[C@@H]([C@@H](C)O)C(=O)N[C@H](C(=O)N2CCCCC2)CC(=O)N(C)CCC(=O)N[C@@H](C)C(=O)N1C [DP-259] ([NMeβAla]A[NMeI][NMeL][NMeF]L[NMeV]FTD-Piperidide; lactam N-10)	91
CC(C)C[C@@H]1NC(=O)[C@H](Cc2ccccc2)N(C)C(=O)CN(C)C(=O)[C@H]([C@@H](C)O)NC(=O)[C@H](CC(C)C)N(C)C(=O)[C@H](C)NC(=O)C[C@@H](C(=O)N(C)[C@@H](Cc2ccccc2)C(=O)N(C)[C@@H](C)C(=O)N2CCC[C@H]2C(=O)N(C)[C@@H](Cc2ccccc2)C(=O)N[C@@H](C)C(=O)N2CCCCC2)NC1=O [DP-565] (A[NMeL]T[Sar][NMeF]LD[NMeF][NMeA]P[NMeF]A-Piperidide; lactam N-7)	56

Please look at the following compound next.
For CC(C)C[C@@H]1NC(=O)[C@H](CC(C)C)NC(=O)[C@H](C)N(C)C(=O)C[C@@H](C(=O)N2CCCCC2)NC(=O)[C@H](C(C)C)N(C)C(=O)[C@H](CC(C)C)NC(=O)[C@H](Cc2ccccc2)NC(=O)[C@H]([C@@H](C)O)NC(=O)CN(C)C(=O)[C@H](CC(C)C)NC(=O)[C@H](c2ccccc2)NC1=O [DP-561] ([NMeA]LL[Phg]L[Sar]TFL[NMeV]D-Piperidide; lactam N-11) , what is its reported microsomal CLint at 1 uM?
48

---

# assay-protocol: PAMPA (parallel artificial membrane permeability assay)
# Format: in vitro ADME
# test-conditions: PAMPA; membrane permeation rate (Pe); 50 mM MOPSO buffer pH 6.5 with 5.0% glycocholic acid, 37° C., 18 hours; read-out: iPAMPA Pe
Starred links: 1 amine or outer side, 2 acyl side, 3 side chain; linkers in the order of their positions; H or OH if unused. Positions of bridges follow the written chain, without caps; N, C: chain ends. Non-standard residues stand in square brackets, D forms with d. Residues, ends and D or L forms follow the SMILES beside them. *: point of attachment. NMeF = CN[C@@H](Cc1ccccc1)C(=O)O; NMeβAla = CN(CCC(=O)[*:2])[*:1]; NMeL = CN[C@@H](CC(C)C)C(=O)O; NMeV = CN[C@H](C(=O)O)C(C)C; NMeA = CN[C@@H](C)C(=O)O; Piperidide = C1CCN(*)CC1; Sar = CNCC(=O)O
measurement-type: Papp at 18 hours, 50 µM (×10⁻⁶ cm/s)
Hi! Could you send only the number? It should be in ×10⁻⁶ cm/s, unit omitted.

For CC[C@H](C)[C@@H]1NC(=O)CCN(C)C(=O)C[C@@H](C(=O)N(C)[C@@H](Cc2ccccc2)C(=O)N(C)[C@@H](Cc2ccccc2)C(=O)N[C@@H](C)C(=O)N2CCCCC2)NC(=O)[C@H](C(C)C)N(C)C(=O)[C@H](C)NC(=O)[C@H](CC(C)C)N(C)C(=O)CN(C)C(=O)[C@H]([C@@H](C)O)NC(=O)[C@H](C)N(C)C(=O)[C@H](Cc2ccccc2)N(C)C1=O [DP-495] ([NMeβAla]I[NMeF][NMeA]T[Sar][NMeL]A[NMeV]D[NMeF][NMeF]A-Piperidide; lactam N-10) , what is its reported Papp at 18 hours, 50 µM?
21
